- System: HepG2
- TEST: cytotoxicity call (relative viability < 0.9)
- SETTINGS: 10 µM
In all, about 39,000 compounds went through this assay and about 3,300 (8.5%) were called active. For the sample, actives were picked, then their nearest neighbours and some compounds at random.
Write down the outcome that applies. Available outcomes: yes for active, no for inactive

Check out these entries, answers already filled in.
CHEMICAL_STRUCTURE: COCC(=O)N(C)C[C@@H]1Oc2cc(C#Cc3ccccc3)ccc2S(=O)(=O)N([C@@H](C)CO)C[C@@H]1C
QUALITATIVE_LABEL: no
//
CHEMICAL_STRUCTURE: C[C@@H]1CN([C@@H](C)CO)C(=O)c2cc(NC(=O)c3ccccc3)ccc2O[C@@H](C)CCCCO[C@H]1CN(C)S(=O)(=O)c1ccc(Cl)cc1
QUALITATIVE_LABEL: yes
//
CHEMICAL_STRUCTURE: C[C@H]1CN([C@@H](C)CO)C(=O)Cc2cc(NC(=O)Nc3ccc(F)cc3)ccc2O[C@@H]1CN(C)Cc1ccc(Cl)c(Cl)c1
QUALITATIVE_LABEL: yes
//
CHEMICAL_STRUCTURE: CN(C)CCCCNC(=O)[C@@H]1C[C@@H]2C(=O)N[C@@H](CCCC[N+](C)(C)C)C(=O)N2[C@@H]1c1cccc(OCCO)c1
QUALITATIVE_LABEL: no
//
CHEMICAL_STRUCTURE: COC(=O)[C@@H](N)c1cccc(OC)c1
QUALITATIVE_LABEL: no

For O=C(NC1=C(c2ccc(OC(F)(F)F)cc2)C(=O)c2ccccc2C1=O)c1ccc(Br)cc1 , what call appears in the results of this test? no
